Data provenance is PubChem BioAssay (NCI).

Test system: COLO 205 colon
assayRemarks: NCI tumour cell line growth inhibition, 48 h
quantityKind: GI50

Completed entries (count: 10):
CC(=O)NS(=O)(=O)c1ccc(-n2nc(-c3ccccc3)cc2-c2cc(O)ccc2O)cc1	44 µM
CC(=O)N[C@@H](Cc1ccc(OP(=O)(O)O)cc1)C(=O)N[C@H]1CCC(=O)N2CCC[C@@H](C(=O)NCc3cccc4ccccc34)N2C1=O	> 25 µM
Cc1cn2c(/C=N/NC3=NCCN3)c(-c3ccc(Cl)c([N+](=O)[O-])c3)nc2s1	1.43 µM
N#CC1(C#N)C2C=CC(C3CC=CC32)C1(C#N)C#N (centres undefined)	5.5 µM
Nc1nc(N)c2cc(Sc3ccc(Cl)cc3)ccc2n1	1.28 µM
COc1cc2cc(Oc3ccc(NC(=O)Nc4ccc(F)c(C(F)(F)F)c4)cc3)c(C)nc2cc1OCCN1CCOCC1	1.87 µM
O=C(O)c1ccc(NCn2nc(-c3ccccc3O)oc2=S)cc1O	42.6 µM
COc1ccc2c(c1)OC(N)=C(C#N)C2c1ccc(F)c(F)c1 (centres undefined)	0.437 µM
Clc1ccc(Nc2ncnc3ccccc23)cc1	68.9 µM
O=C(/C=C/c1cccnc1)c1ccccc1	13.9 µM

Per the records, this compound ( "CCOC(=O)Nc1ccc2c3c(cccc13)-c1ccccc1-2" ) has GI50 equal to 4.25 µM

Short answer for "CCN1C2=C(SC(=S)C1=C1SC(C(=O)c3ccccc3)=C(C(=O)c3ccccc3)S1)SC(=Nc1ccccc1)C2=O" : GI50 was > 100 µM

====

molecules and their reported GI50
Test system: MALME-3M melanoma
assayRemarks: NCI tumour cell line growth inhibition, 48 h

Previously resolved entries follow.
Fc1ccc(-c2nn3c(COc4ccccc4Cl)nnc3s2)cc1Oc1ccccc1	26.2 µM
N#C/C(=C\c1ccc([N+](=O)[O-])cc1)n1nnc2cc(F)c(F)cc21	2.08 µM
COc1ccc(-c2nc(Nc3ccc(F)cc3)nc(Nc3ccc4c(c3)nc(C)n4Cc3ccccc3)n2)cc1	4.32 µM
Clc1ccc(Nc2ncnc3ccccc23)cc1	33.9 µM

Attention now shifts to the item below.
Per the reported MALME-3M melanoma data, "COc1cc2cc(Oc3ccc(NC(=O)Nc4ccc(F)c(C(F)(F)F)c4)cc3)c(C)nc2cc1OCCN1CCOCC1" has GI50 of 1.57 µM

====

Test system: CCRF-CEM leukemia
assayRemarks: NCI tumour cell line growth inhibition, 48 h
quantityKind: TGI (µM)
Dear colleague, please return just the value in µM, with no unit written.

O=C(CSc1nc(-c2ccccc2)c(-c2ccccc2)[nH]1)N/N=C/c1ccc([N+](=O)[O-])cc1	61.3

Pending molecule:
Data point: "Nc1nc(N)c2cc(Sc3ccc(Cl)cc3)ccc2n1" ; TGI = 17.4

====

System: RPMI-8226 leukemia
assayRemarks: NCI tumour cell line growth inhibition, 48 h
# TGI per record follows

Consider the reported TGI for these molecules:
COc1cc2cc(Oc3ccc(NC(=O)Nc4ccc(F)c(C(F)(F)F)c4)cc3)c(C)nc2cc1OCCN1CCOCC1	4.25 µM
COc1ccc2c(c1)OC(N)=C(C#N)C2c1ccc(F)c(F)c1 (stereo unspecified)	31.7 µM

Record summary for N#CC(NNC(=O)Cc1ccccc1)c1ccc(O)cc1 (stereo unspecified) : reported TGI = > 100 µM

TGI for "COc1ccc(C(=O)O[C@@H]2CCN3CC[C@H](C)[C@H]23)cc1" is > 100 µM

Lookup result for "COc1cc(C)cc(C(=O)OCc2ccccc2)c1C1=C(Cl)C(=O)C(Cl)=CC1=O" ; measured TGI: > 10 µM

Input Cc1nn(C(=O)c2ccc(Cl)cc2)c2c1C(c1ccccc1)SC(N)=N2 (stereo unspecified) . Output TGI: > 10 µM
